test system: 349418-098-R tumor spheroid viability; test: Anticancer human tumor 349418-098-R patient-derived lung adenocarcinoma cell line growth inhibition; settings: second compound 0.003 µM; first compound 0.1 µM; spheroids with HUVEC and MSC; active = viability on the fitted dose curve at most 10% of control; inactive = the rest;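 also: spheroids exposed to compound for 7 days before measurement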
Labels: active, inactive

* CC(C)n1c(=O)n(C)c2cnc3cc(F)c(-c4ccc(OCCCN5CCCCC5)nc4)cc3c21 + CC[C@@]1(O)C(=O)OCc2c1cc1n(c2=O)Cc2cc3c(CN(C)C)c(O)ccc3nc2-1 | inactive
* [2H]c1nc(C)nc([2H])c1-c1cc(NC[C@@H](C)c2cccc3c(C(=O)NC)ccnc23)ncn1 + COc1cc2c(cc1O)CCNC21CSC2c3c(OC(C)=O)c(C)c4c(c3C(COC1=O)N1C(O)C3Cc5cc(C)c(OC)c(O)c5C(C21)N3C)OCO4 | active
* Cc1cc(C)c(CNC(=O)c2cc(-c3ccc(CN4CCOCC4)cc3)cc3c2cnn3C2CCCC2)c(=O)[nH]1 + COc1cc2c(cc1O)CCNC21CSC2c3c(OC(C)=O)c(C)c4c(c3C(COC1=O)N1C(O)C3Cc5cc(C)c(OC)c(O)c5C(C21)N3C)OCO4 | active
* COc1cc(C)[nH]c(=O)c1CN1CCc2c(Cl)cc(C(OC)C3COC3)c(Cl)c2C1=O (configuration not stated) + CC[C@@]1(O)C(=O)OCc2c1cc1n(c2=O)Cc2cc3c(CN(C)C)c(O)ccc3nc2-1 | inactive
* COc1ccc([C@@H](O)c2cc(-c3ncnc4cc(N5CCOCC5)ccc34)c(F)cc2Cl)nn1 + COc1cc2c(cc1O)CCNC21CSC2c3c(OC(C)=O)c(C)c4c(c3C(COC1=O)N1C(O)C3Cc5cc(C)c(OC)c(O)c5C(C21)N3C)OCO4 | active
* CC(C)n1c(=O)n(C)c2cnc3cc(F)c(-c4ccc(OCCCN5CCCCC5)nc4)cc3c21 + COc1cc2c(cc1O)CCNC21CSC2c3c(OC(C)=O)c(C)c4c(c3C(COC1=O)N1C(O)C3Cc5cc(C)c(OC)c(O)c5C(C21)N3C)OCO4 | active
* CC1COCCN1c1cc(-c2ccnn2C)c2ccnc(-c3ccn[nH]3)c2n1 (configuration not stated) + CC[C@@]1(O)C(=O)OCc2c1cc1n(c2=O)Cc2cc3c(CN(C)C)c(O)ccc3nc2-1 | inactive
* [2H]c1nc(C)nc([2H])c1-c1cc(NC[C@@H](C)c2cccc3c(C(=O)NC)ccnc23)ncn1 + CC[C@@]1(O)C(=O)OCc2c1cc1n(c2=O)Cc2cc3c(CN(C)C)c(O)ccc3nc2-1 | inactive
* Cc1cc(C)c(CNC(=O)c2cc(-c3ccc(CN4CCOCC4)cc3)cc3c2cnn3C2CCCC2)c(=O)[nH]1 + CC[C@@]1(O)C(=O)OCc2c1cc1n(c2=O)Cc2cc3c(CN(C)C)c(O)ccc3nc2-1 | inactive
* COc1ccc([C@@H](O)c2cc(-c3ncnc4cc(N5CCOCC5)ccc34)c(F)cc2Cl)nn1 + CC[C@@]1(O)C(=O)OCc2c1cc1n(c2=O)Cc2cc3c(CN(C)C)c(O)ccc3nc2-1 | inactive
* COc1cc(C)[nH]c(=O)c1CN1CCc2c(Cl)cc(C(OC)C3COC3)c(Cl)c2C1=O (configuration not stated) + COc1cc2c(cc1O)CCNC21CSC2c3c(OC(C)=O)c(C)c4c(c3C(COC1=O)N1C(O)C3Cc5cc(C)c(OC)c(O)c5C(C21)N3C)OCO4 | active
* CC1COCCN1c1cc(-c2ccnn2C)c2ccnc(-c3ccn[nH]3)c2n1 (configuration not stated) + COc1cc2c(cc1O)CCNC21CSC2c3c(OC(C)=O)c(C)c4c(c3C(COC1=O)N1C(O)C3Cc5cc(C)c(OC)c(O)c5C(C21)N3C)OCO4 | active
